molecular target: ErbB-4 receptor-Ig fusion (homodimer) (human, UniProt Q15303 26-651; Q15303 26-640); assay: displacement of 125I-HRG-β1 177-244 from plate-bound ErbB-4-Ig
Sequence (Q15303 other isoform, or with tags, fused parts or gaps): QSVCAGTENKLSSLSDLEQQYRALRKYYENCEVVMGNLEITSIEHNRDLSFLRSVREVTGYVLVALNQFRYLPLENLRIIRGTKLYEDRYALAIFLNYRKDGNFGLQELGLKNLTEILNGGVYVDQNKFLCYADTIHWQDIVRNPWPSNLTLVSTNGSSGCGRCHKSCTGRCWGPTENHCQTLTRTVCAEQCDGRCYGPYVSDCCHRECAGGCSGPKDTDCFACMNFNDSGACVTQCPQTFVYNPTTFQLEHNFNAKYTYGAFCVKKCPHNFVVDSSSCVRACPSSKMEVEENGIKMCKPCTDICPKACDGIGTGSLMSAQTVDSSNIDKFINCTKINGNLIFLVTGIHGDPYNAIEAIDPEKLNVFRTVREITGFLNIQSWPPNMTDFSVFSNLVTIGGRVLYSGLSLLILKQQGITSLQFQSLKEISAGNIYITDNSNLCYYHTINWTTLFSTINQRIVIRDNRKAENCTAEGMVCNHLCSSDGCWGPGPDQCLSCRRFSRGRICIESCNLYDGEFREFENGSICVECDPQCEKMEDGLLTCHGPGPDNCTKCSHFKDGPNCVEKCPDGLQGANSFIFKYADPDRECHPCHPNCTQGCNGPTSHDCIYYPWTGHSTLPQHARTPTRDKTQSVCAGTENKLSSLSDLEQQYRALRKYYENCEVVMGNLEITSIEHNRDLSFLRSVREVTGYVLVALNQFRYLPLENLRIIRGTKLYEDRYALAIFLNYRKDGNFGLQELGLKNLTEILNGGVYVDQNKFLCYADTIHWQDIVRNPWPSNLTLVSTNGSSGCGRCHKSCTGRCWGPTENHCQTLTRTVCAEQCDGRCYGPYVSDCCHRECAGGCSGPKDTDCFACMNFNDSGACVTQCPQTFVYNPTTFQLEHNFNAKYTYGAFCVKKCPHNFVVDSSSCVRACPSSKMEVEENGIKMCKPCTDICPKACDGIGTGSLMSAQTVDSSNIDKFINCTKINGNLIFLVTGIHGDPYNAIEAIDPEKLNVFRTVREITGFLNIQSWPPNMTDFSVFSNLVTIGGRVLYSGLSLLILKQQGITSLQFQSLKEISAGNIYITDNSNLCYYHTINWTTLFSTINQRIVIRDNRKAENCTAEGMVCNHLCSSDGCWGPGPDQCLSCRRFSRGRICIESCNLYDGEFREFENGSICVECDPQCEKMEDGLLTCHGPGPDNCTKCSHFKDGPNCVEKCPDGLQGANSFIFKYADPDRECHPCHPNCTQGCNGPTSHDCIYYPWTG
pEC50: −log10 of the molar value.
Rule: pEC50 under 7 gives label 0, otherwise label 1.

q: Has Trx-HRG-β1 146-244 K200A fusion (soluble) (ligand) AYVSSESPIRISVSTEGANTSSSTSTSTTGTSHLVKCAEKEKTFCVNGGECFMVADLSNPSRYLCKCPNEFTGDRCQNYVMASFYKHLGIEFMEAEELY a recorded pEC50 greater than or equal to 7?
a: label 1

q: Has Trx-HRG-β1 146-244 G194A fusion (soluble) (ligand) AYVSSESPIRISVSTEGANTSSSTSTSTTGTSHLVKCAEKEKTFCVNGAECFMVKDLSNPSRYLCKCPNEFTGDRCQNYVMASFYKHLGIEFMEAEELY a recorded pEC50 greater than or equal to 7?
a: label 0

q: Has Trx-HRG-β1 146-244 F189A fusion (soluble) (ligand) AYVSSESPIRISVSTEGANTSSSTSTSTTGTSHLVKCAEKEKTACVNGGECFMVKDLSNPSRYLCKCPNEFTGDRCQNYVMASFYKHLGIEFMEAEELY a recorded pEC50 greater than or equal to 7?
a: label 0

q: Has Trx-HRG-β1 146-244 N192A fusion (soluble) (ligand) AYVSSESPIRISVSTEGANTSSSTSTSTTGTSHLVKCAEKEKTFCVAGGECFMVKDLSNPSRYLCKCPNEFTGDRCQNYVMASFYKHLGIEFMEAEELY a recorded pEC50 greater than or equal to 7?
a: label 0

q: Has Trx-HRG-β1 146-244 S177A fusion (soluble) (ligand) AYVSSESPIRISVSTEGANTSSSTSTSTTGTAHLVKCAEKEKTFCVNGGECFMVKDLSNPSRYLCKCPNEFTGDRCQNYVMASFYKHLGIEFMEAEELY a recorded pEC50 greater than or equal to 7?
a: label 1

q: Has Trx-HRG-β1 146-244 R207A fusion (soluble) (ligand) AYVSSESPIRISVSTEGANTSSSTSTSTTGTSHLVKCAEKEKTFCVNGGECFMVKDLSNPSAYLCKCPNEFTGDRCQNYVMASFYKHLGIEFMEAEELY a recorded pEC50 greater than or equal to 7?
a: label 1
